- Tested on: Human alphaherpesvirus 1
- Assay procedure: Antiviral activity against HSV-1 blue infected in African green monkey Vero cells assessed as reduction in virus induced cytopathogenicity by plaque reduction assay
- Type: functional, organism-based
- Condition context: Human alphaherpesvirus 1, blue
Square brackets hold non-standard residues; d marks the D form. Peptide text beside a SMILES is read from it. dNMeY = CN[C@H](Cc1ccc(O)cc1)C(=O)O
Observable: pEC50
In simple prose, pEC50 is minus the logarithm base ten of a concentration in moles per litre.

// query pEC50 value for entry COc1ccc(C[C@@H]2NC(=O)[C@@H]3CCCN3C(=O)[C@H](C(C)C)NC(=O)[C@@H](Cc3ccc(O)cc3)N(C)C(=O)[C@H](Cc3ccc(OC)cc3)NC2=O)cc1 (cyclo(PY(Me)Y(Me)[dNMeY]V))
5.10

These entries and their values trace back to ChEMBL document CHEMBL5537109.
